- measurement target: T1, Mouse MuSK as it stands on mouse muscle (neuromuscular junctions, C2C12 myotubes) (mouse, UniProt Q61006 22-868)
- T1 sequence (looked up): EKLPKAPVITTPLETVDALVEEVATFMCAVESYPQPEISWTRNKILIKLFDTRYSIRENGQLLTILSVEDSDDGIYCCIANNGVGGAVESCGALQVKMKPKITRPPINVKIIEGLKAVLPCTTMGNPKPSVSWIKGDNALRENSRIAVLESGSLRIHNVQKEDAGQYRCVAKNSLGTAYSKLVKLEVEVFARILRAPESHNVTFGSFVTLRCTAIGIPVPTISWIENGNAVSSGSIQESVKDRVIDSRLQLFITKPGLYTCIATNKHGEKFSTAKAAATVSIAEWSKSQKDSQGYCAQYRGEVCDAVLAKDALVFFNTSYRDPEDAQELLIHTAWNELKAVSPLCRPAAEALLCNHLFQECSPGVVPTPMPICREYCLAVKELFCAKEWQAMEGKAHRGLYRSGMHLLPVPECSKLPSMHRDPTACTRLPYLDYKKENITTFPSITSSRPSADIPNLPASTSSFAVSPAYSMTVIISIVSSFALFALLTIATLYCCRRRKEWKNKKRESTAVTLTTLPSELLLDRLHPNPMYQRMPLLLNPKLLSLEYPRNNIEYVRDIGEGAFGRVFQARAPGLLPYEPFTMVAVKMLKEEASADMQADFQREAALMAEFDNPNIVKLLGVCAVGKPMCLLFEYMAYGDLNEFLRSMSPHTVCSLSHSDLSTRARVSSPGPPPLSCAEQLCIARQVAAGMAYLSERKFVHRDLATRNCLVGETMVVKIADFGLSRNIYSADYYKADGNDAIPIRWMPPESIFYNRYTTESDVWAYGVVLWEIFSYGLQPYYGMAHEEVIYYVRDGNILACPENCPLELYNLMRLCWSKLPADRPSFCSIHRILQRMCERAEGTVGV
- experimental protocol: cell-based or functional assay
readout type: AChR clusters larger or equal to 3 µm compared to agrin; Exp 2, batch Argenx

{"binder": "4D3 (antibody, human IgG1, kappa, L234A L235A, V domains shown) VH: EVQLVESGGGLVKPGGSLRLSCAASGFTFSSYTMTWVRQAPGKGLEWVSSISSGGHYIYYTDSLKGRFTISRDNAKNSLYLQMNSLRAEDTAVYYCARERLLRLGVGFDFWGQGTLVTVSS VL: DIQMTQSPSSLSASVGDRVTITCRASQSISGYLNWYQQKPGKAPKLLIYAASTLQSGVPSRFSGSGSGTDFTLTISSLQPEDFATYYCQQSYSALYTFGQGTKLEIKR", "recorded measurement": "73 % of agrin"}
{"binder": "3D10a (antibody, human IgG1, kappa, L234A L235A, V domains shown) VH: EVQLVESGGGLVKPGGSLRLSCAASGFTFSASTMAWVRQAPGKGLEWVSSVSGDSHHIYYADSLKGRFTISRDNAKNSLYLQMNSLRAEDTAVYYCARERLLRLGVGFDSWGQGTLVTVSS VL: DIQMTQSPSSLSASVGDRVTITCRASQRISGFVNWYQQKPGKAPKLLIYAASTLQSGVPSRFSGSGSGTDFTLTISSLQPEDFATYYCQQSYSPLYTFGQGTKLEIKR", "recorded measurement": "99 % of agrin"}

Attention now shifts to the item below.
Ask: Given the binder 3F6c (antibody, human IgG1, kappa, L234A L235A, V domains shown) VH: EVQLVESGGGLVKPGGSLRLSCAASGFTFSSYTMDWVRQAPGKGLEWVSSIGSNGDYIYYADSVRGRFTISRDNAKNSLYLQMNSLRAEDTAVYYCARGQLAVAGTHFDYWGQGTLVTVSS VL: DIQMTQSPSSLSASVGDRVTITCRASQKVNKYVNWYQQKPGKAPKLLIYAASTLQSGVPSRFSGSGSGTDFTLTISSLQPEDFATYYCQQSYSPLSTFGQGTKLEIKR , what is its reported AChR clusters larger or equal to 3 µm compared to agrin; Exp 2, batch Argenx?
Result: 105 % of agrin
